# SYSTEM_NAME: human CRTH2 (Homo sapiens, UniProt Q9Y5Y4, V204A)
# Sequence (Q9Y5Y4 whole entry V204A): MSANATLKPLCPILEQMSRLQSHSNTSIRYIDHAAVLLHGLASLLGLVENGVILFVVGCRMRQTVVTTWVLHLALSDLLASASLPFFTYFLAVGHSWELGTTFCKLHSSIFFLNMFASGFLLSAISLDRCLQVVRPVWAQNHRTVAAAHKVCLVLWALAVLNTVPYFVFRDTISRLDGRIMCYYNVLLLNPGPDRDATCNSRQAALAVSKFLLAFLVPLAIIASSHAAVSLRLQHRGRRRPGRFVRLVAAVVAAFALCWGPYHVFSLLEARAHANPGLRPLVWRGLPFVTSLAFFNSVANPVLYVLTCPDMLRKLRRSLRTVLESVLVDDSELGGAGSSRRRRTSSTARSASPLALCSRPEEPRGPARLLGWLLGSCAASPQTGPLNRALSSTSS
# EXPERIMENTAL_DETAILS: Functional antagonist BRET assay on HEK293 cells stably expressing human CRTH2-Rluc and GFP2-β-arr2
# Format: cell-based
# Design: expressed in transfected cells
# SETUP_CONDITIONS: BRET, antagonist incubated 15 minutes prior to agonist; read-out: Antag. IC50
# Method: Generation/origin of the cDNA Constructs. […] BRET assay. […] Five seconds after the injections the light output from the well was measured sequentially at 400 nm and 515 nm, and the BRET signal (mBRET ratio) was calculated by the ratio of the fluorescence emitted by GFP^2-β-arr2 (515 nm) over the light emitted by the receptor-Rluc (400 nm). […]
MEASUREMENT_KIND: IC50

# COMPOUND, SYSTEM_NAME, ASSAY_VALUE
rows = [
    ("CCc1cccc(C)c1-n1cc(C(=O)c2cc(Br)ccc2OCC(=O)O)cn1", "human CRTH2 (Homo sapiens, UniProt Q9Y5Y4, V204A)", "< 0.5 µM"),
    ("O=C(O)COc1ccccc1C(=O)c1cnn(-c2ccccc2)c1 [D2]", "human CRTH2 (Homo sapiens, UniProt Q9Y5Y4, V204A)", "0.5 to 5 µM"),
    ("COc1ccc(OCC(=O)O)c(C(=O)c2cnn(-c3ccccc3)c2)c1", "human CRTH2 (Homo sapiens, UniProt Q9Y5Y4, V204A)", "0.5 to 5 µM"),
    ("O=C(O)COc1ccc(Br)cc1CC1SC(=O)N(Cc2ccc(Cl)cc2)C1=O (centres unmarked)", "human CRTH2 (Homo sapiens, UniProt Q9Y5Y4, V204A)", "< 0.5 µM"),
    ("O=C(O)COc1ccc(Br)cc1C(=O)c1cnn(-c2cccc(Br)c2)c1", "human CRTH2 (Homo sapiens, UniProt Q9Y5Y4, V204A)", "< 0.5 µM"),
    ("O=C(O)COc1ccccc1C=NNC(=O)CSc1nnc(-c2ccc(Cl)cc2)n1-c1ccccc1", "human CRTH2 (Homo sapiens, UniProt Q9Y5Y4, V204A)", "0.5 to 5 µM"),
    ("O=C(O)COc1ccc([N+](=O)[O-])cc1C(=O)c1cnn(-c2ccccc2Br)c1", "human CRTH2 (Homo sapiens, UniProt Q9Y5Y4, V204A)", "< 0.5 µM"),
    ("O=C(O)COc1ccc(Cl)cc1C(=O)c1cnn(-c2ccccc2)c1", "human CRTH2 (Homo sapiens, UniProt Q9Y5Y4, V204A)", "0.5 to 5 µM"),
    ("COc1ccccc1-n1cc(C(=O)c2cc(Br)ccc2OCC(=O)O)cn1", "human CRTH2 (Homo sapiens, UniProt Q9Y5Y4, V204A)", "< 0.5 µM"),
    ("CC(Oc1ccc(Br)cc1C(=O)c1cnn(-c2ccc(Cl)cc2Cl)c1)C(=O)O (centres unmarked)", "human CRTH2 (Homo sapiens, UniProt Q9Y5Y4, V204A)", "< 0.5 µM"),
    ("O=C(O)COc1ccc(Br)cc1C(=O)c1cnn(-c2cc(Cl)ccc2Cl)c1", "human CRTH2 (Homo sapiens, UniProt Q9Y5Y4, V204A)", "< 0.5 µM"),
    ("Cc1ccc(OCC(=O)O)c(C(=O)c2cnn(-c3ccccc3)c2)c1", "human CRTH2 (Homo sapiens, UniProt Q9Y5Y4, V204A)", "0.5 to 5 µM"),
    ("O=C(O)COc1ccc(Br)cc1C=NNc1ccccn1", "human CRTH2 (Homo sapiens, UniProt Q9Y5Y4, V204A)", "> 5 µM"),
    ("O=C(O)COc1ccc(Br)cc1C(=O)c1cnn(Cc2ccccc2)c1", "human CRTH2 (Homo sapiens, UniProt Q9Y5Y4, V204A)", "< 0.5 µM"),
    ("CCOc1ccccc1-n1cc(C(=O)c2cc(Br)ccc2OCC(=O)O)cn1", "human CRTH2 (Homo sapiens, UniProt Q9Y5Y4, V204A)", "< 0.5 µM"),
    ("O=C(O)COc1ccc(Br)cc1-c1noc(-c2ccccc2)n1", "human CRTH2 (Homo sapiens, UniProt Q9Y5Y4, V204A)", "> 5 µM"),
    ("CCc1cccc(CC)c1-n1cc(C(=O)c2cc(Br)ccc2OCC(=O)O)cn1", "human CRTH2 (Homo sapiens, UniProt Q9Y5Y4, V204A)", "< 0.5 µM"),
    ("O=C(O)COc1ccc(Br)cc1C(=O)c1cnn(-c2cccc3ccccc23)c1", "human CRTH2 (Homo sapiens, UniProt Q9Y5Y4, V204A)", "< 0.5 µM"),
    ("O=C(O)COc1ccc(Br)cc1C(=O)c1cnc(-c2ccccc2)s1", "human CRTH2 (Homo sapiens, UniProt Q9Y5Y4, V204A)", "< 0.5 µM"),
    ("COc1ccc(Cc2nc(-c3cc(Br)ccc3OCC(=O)O)co2)cc1", "human CRTH2 (Homo sapiens, UniProt Q9Y5Y4, V204A)", "< 0.5 µM"),
    ("CCCCc1ccc(OCC(=O)O)c(C(=O)c2cnn(-c3ccccc3)c2)c1", "human CRTH2 (Homo sapiens, UniProt Q9Y5Y4, V204A)", "> 5 µM"),
    ("O=C(O)COc1ccc(Br)cc1CC1SC(=O)N(Cc2ccncc2)C1=O (centres unmarked)", "human CRTH2 (Homo sapiens, UniProt Q9Y5Y4, V204A)", "< 0.5 µM"),
    ("O=C(O)COc1ccc([N+](=O)[O-])cc1C(=O)c1cnn(-c2ccccc2)c1", "human CRTH2 (Homo sapiens, UniProt Q9Y5Y4, V204A)", "< 0.5 µM"),
    ("O=C(O)COc1ccc(Br)cc1-c1nc(-c2ccccn2)no1", "human CRTH2 (Homo sapiens, UniProt Q9Y5Y4, V204A)", "> 5 µM"),
    ("Cc1ccc(CN2C(=O)SC(Cc3cc(Br)ccc3OCC(=O)O)C2=O)cc1 (centres unmarked)", "human CRTH2 (Homo sapiens, UniProt Q9Y5Y4, V204A)", "< 0.5 µM"),
    ("CCc1cccc(CC)c1-n1cc(C(=O)c2cc(Br)ccc2OC(C)C(=O)O)cn1 (centres unmarked)", "human CRTH2 (Homo sapiens, UniProt Q9Y5Y4, V204A)", "< 0.5 µM"),
    ("O=C(O)COc1ccc(Br)cc1C=NNc1nncc(-c2ccccc2)n1", "human CRTH2 (Homo sapiens, UniProt Q9Y5Y4, V204A)", "0.5 to 5 µM"),
    ("O=C(O)COc1ccc(Br)cc1C(=O)c1cnn(-c2cccc(C(F)(F)F)c2)c1", "human CRTH2 (Homo sapiens, UniProt Q9Y5Y4, V204A)", "< 0.5 µM"),
    ("Cc1cc(Cl)ccc1-n1cc(C(=O)c2cc(Br)ccc2OCC(=O)O)cn1", "human CRTH2 (Homo sapiens, UniProt Q9Y5Y4, V204A)", "< 0.5 µM"),
    ("CC(Oc1ccc(Br)cc1C(=O)c1cnn(-c2ccccc2)c1)C(=O)O (racemic)", "human CRTH2 (Homo sapiens, UniProt Q9Y5Y4, V204A)", "< 0.5 µM"),
    ("O=C(O)COc1ccc(Br)cc1C(=O)c1cc(-c2ccccc2)no1", "human CRTH2 (Homo sapiens, UniProt Q9Y5Y4, V204A)", "< 0.5 µM"),
    ("O=C(O)COc1ccc(Br)cc1C(=O)c1cnn(-c2c(Cl)cncc2Cl)c1", "human CRTH2 (Homo sapiens, UniProt Q9Y5Y4, V204A)", "< 0.5 µM"),
]

----------
Listed below: IC50 values for each entry.
# SYSTEM_NAME: human CRTH2 (Homo sapiens, UniProt Q9Y5Y4, V204A)
# EXPERIMENTAL_DETAILS: Functional antagonist BRET assay on HEK293 cells stably expressing human CRTH2-Rluc and GFP2-β-arr2
# Format: cell-based
# Design: expressed in transfected cells
# SETUP_CONDITIONS: BRET, antagonist incubated 15 minutes prior to agonist; read-out: Antag. IC50
# Description: Generation/origin of the cDNA Constructs. […] BRET assay. […] Five seconds after the injections the light output from the well was measured sequentially at 400 nm and 515 nm, and the BRET signal (mBRET ratio) was calculated by the ratio of the fluorescence emitted by GFP^2-β-arr2 (515 nm) over the light emitted by the receptor-Rluc (400 nm). […]

# COMPOUND, IC50
records = [
    ("CCc1cc(Br)ccc1-n1cc(C(=O)c2cc(Br)ccc2OC(C)C(=O)O)cn1 (stereo not drawn)", "< 500 nM"),
    ("Cc1ccc(-n2cc(C(=O)c3cc(Br)ccc3OCC(=O)O)cn2)c(Br)c1", "< 500 nM"),
    ("O=C(O)COc1ccc(Br)cc1-c1coc(Cc2ccccc2)n1", "< 500 nM"),
    ("Cc1cccc(Cl)c1-n1cc(C(=O)c2cc(Br)ccc2OCC(=O)O)cn1", "< 500 nM"),
    ("O=C(O)COc1ccc([N+](=O)[O-])cc1C(=O)c1cnn(-c2ccccc2Cl)c1", "< 500 nM"),
    ("CCc1ccccc1-n1cc(C(=O)c2cc(Br)ccc2OCC(=O)O)cn1", "< 500 nM"),
    ("O=C(O)COc1ccc(Br)cc1C(=O)c1cnn(-c2ccccc2F)c1", "< 500 nM"),
    ("O=C(O)COc1ccc(Br)cc1C(=O)c1cnn(-c2ccccn2)c1", "< 500 nM"),
    ("O=C(O)COc1ccc(Br)cc1C(=O)c1cnn(-c2ccc(Br)cc2Br)c1", "< 500 nM"),
]
